biological target: T1, cynomolgus (cyno) TMEM106B (cynomolgus, UniProt Q9NUM4 2-274 (human entry)); assay: FACS, HEK293 transfectants;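 also: flow cytometry binding of hybridoma supernatants to HEK293 cells transiently expressing human, cyno or mouse TMEM106B, read as anti-mouse-APC median fluorescence, live cells only, 30 min on ice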
T1 construct: on transiently transfected HEK293 cells
assay.metric: fold-change over parental HEK293 (fold)

binder	assay.metric	value.reported
anti-TMEM106B antibody TM-35 (antibody, V domains shown) VH: QVQLQQSGPELVRPGTSVKISCKAPGYTFTRHWMQWVRQRPGQGLEWIGEILPGSNNIYYNEKVKGKATLTVDTSSSTSYMQLSSLTSEDSAVYFCARSLYDYDGVFAYWGQGTLVTVSA VL: DVLMTQIPLSLPVSLGDQASISCRSSQSIVHRNGNTYLEWYLQKPGQSPKLLIYKVSNRFSGVPDRFSGSGSGTDFTLKISRVEAEDLGVYYCFQGSHVPYTFGGGTKLEIK	fold-change over parental HEK293	14.7
anti-TMEM106B antibody TM-49 (antibody, V domains shown, mouse IgG from hybridoma) VH: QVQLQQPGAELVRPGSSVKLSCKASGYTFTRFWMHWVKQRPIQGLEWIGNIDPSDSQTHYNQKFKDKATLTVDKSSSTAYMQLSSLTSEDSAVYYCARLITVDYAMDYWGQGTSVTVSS VL: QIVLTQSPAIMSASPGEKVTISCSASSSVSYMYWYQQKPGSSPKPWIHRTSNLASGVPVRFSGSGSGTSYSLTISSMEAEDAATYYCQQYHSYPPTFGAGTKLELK	fold-change over parental HEK293	13.8
anti-TMEM106B antibody TM-48 (antibody, V domains shown) VH: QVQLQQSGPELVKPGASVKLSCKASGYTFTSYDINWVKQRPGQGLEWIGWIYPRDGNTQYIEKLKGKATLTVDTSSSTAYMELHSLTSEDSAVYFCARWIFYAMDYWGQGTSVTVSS VL: DVLMTQTPLSLPVSLGNQASISCRSSQSIVHGNGNTYLEWYLQKPGQSPKLLIYKVSNRFSGVPDRFSGSGSGTDFTLKISRVEAEDLGVYYCFQGSHLPYTFGGGTKLEIK	fold-change over parental HEK293	16.4
